- measurementTarget: UniProt P00375
- Sequence (whole entry): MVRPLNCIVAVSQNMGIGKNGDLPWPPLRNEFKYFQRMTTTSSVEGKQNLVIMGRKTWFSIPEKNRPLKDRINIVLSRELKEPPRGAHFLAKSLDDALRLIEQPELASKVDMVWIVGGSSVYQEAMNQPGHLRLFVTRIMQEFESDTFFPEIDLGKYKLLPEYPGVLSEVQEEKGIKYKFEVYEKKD
- measurementProtocol: Compound is evaluated for binding to L1210 mouse leukemia cells dihydrofolate reductase using ligand-binding assay
metricName: ID50 (nM)
One number for each entry, in nM.

See these solved cases before continuing.
[
  {
    "compound": "CN(Cc1cnc2nc(N)nc(N)c2n1)c1ccc(C(=O)NC(CCC(=O)NN)C(=O)NN)cc1 (centres undefined)",
    "ID50, nM": 20
  },
  {
    "compound": "COc1ccc(CNC(=O)CCC(NC(=O)c2ccc(N(C)Cc3cnc4nc(N)nc(N)c4n3)cc2)C(=O)NCc2ccc(OC)cc2)cc1 (centres undefined)",
    "ID50, nM": 130
  },
  {
    "compound": "CN(Cc1cnc2nc(N)nc(N)c2n1)c1ccc(C(=O)NC(CCC(=O)N(Cc2ccccc2)Cc2ccccc2)C(=O)N(Cc2ccccc2)Cc2ccccc2)cc1 (centres undefined)",
    "ID50, nM": 530
  }
]

Let us examine a further case.
In: Find the measured ID50 of CN(Cc1cnc2nc(N)nc(N)c2n1)c1ccc(C(=O)NC(CCC(=O)NCc2ccc(Cl)cc2)C(=O)NCc2ccc(Cl)cc2)cc1 (centres undefined) and report it.
Out: 180

====

- measurementTarget: Dihydrofolate reductase (Lactobacillus casei) (UniProt P00381)
- Sequence (P00381 whole entry): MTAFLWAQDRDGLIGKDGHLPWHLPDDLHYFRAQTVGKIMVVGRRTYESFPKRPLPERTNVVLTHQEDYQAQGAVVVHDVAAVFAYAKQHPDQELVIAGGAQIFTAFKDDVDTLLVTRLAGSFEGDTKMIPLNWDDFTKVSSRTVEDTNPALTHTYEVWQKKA
- measurementProtocol: Compound is evaluated for binding to Lactobacillus casei dihydrofolate reductase using kinetic assay
- measurementSetup: Lacticaseibacillus casei
Could you please mark satisfied for values of ID50 below 900 nM and not satisfied for values at or above it?

Reference set (5 entries):
[
  {
    "molecule": "CN(Cc1cnc2nc(N)nc(N)c2n1)c1ccc(C(=O)NC(CCC(=O)NN)C(=O)NN)cc1 (configuration not stated)",
    "groupLabel": "satisfied"
  },
  {
    "molecule": "CN(Cc1cnc2nc(N)nc(N)c2n1)c1ccc(C(=O)NC(CCC(=O)N2CCCCC2)C(=O)N2CCCCC2)cc1 (configuration not stated)",
    "groupLabel": "satisfied"
  },
  {
    "molecule": "CN(Cc1cnc2nc(N)nc(N)c2n1)c1ccc(C(=O)NC(CCC(=O)NC23CC4CC(CC(C4)C2)C3)C(=O)NC23CC4CC(CC(C4)C2)C3)cc1 (configuration not stated)",
    "groupLabel": "not satisfied"
  },
  {
    "molecule": "CN(Cc1cnc2nc(N)nc(N)c2n1)c1ccc(C(=O)NC(CCC(=O)N(Cc2ccccc2)Cc2ccccc2)C(=O)N(Cc2ccccc2)Cc2ccccc2)cc1 (configuration not stated)",
    "groupLabel": "satisfied"
  },
  {
    "molecule": "COc1ccc(CNC(=O)CCC(NC(=O)c2ccc(N(C)Cc3cnc4nc(N)nc(N)c4n3)cc2)C(=O)NCc2ccc(OC)cc2)cc1 (configuration not stated)",
    "groupLabel": "satisfied"
  }
]

In: # TODO verify ID50 < 900 nM strictly for this molecule: CN(Cc1cnc2nc(N)nc(N)c2n1)c1ccc(C(=O)NC(CCC(=O)NO)C(=O)O)cc1 (configuration not stated)
Out: satisfied

In: # TODO verify ID50 < 900 nM strictly for this molecule: CN(Cc1cnc2nc(N)nc(N)c2n1)c1ccc(C(=O)NC(CCC(=O)NCc2ccc(Cl)cc2)C(=O)NCc2ccc(Cl)cc2)cc1 (configuration not stated)
Out: not satisfied

====

- measurementTarget: Dihydrofolate reductase (Mus musculus) (UniProt P00375)
- measurementProtocol: Compound is evaluated for binding to L1210 mouse leukemia cells dihydrofolate reductase using ligand-binding assay
I'd be grateful if you could share measured ID50 for these entries.
Kindly write the number and append the unit.

[
  {
    "compound": "CN(Cc1cnc2nc(N)nc(N)c2n1)c1ccc(C(=O)NC(CCC(=O)NO)C(=O)O)cc1 (centres undefined)",
    "ID50": "4.8 nM"
  },
  {
    "compound": "CN(Cc1cnc2nc(N)nc(N)c2n1)c1ccc(C(=O)NC(CCC(=O)NC23CC4CC(CC(C4)C2)C3)C(=O)NC23CC4CC(CC(C4)C2)C3)cc1 (centres undefined)",
    "ID50": "3100 nM"
  },
  {
    "compound": "CN(Cc1cnc2nc(N)nc(N)c2n1)c1ccc(C(=O)NC(CCC(=O)N2CCCCC2)C(=O)N2CCCCC2)cc1 (centres undefined)",
    "ID50": "12 nM"
  }
]

Let us examine a further case.
In: Fill in ID50 for CN(Cc1cnc2nc(N)nc(N)c2n1)c1ccc(C(=O)NC(CCC(=O)Nc2ccccc2)C(=O)Nc2ccccc2)cc1 (centres undefined) tested with Dihydrofolate reductase (Mus musculus) (UniProt P00375).
Out: 74 nM
